cAMP accumulation Maximum values, listed per item
TARGET_OR_SYSTEM: human PTH-2 receptor (human, UniProt P49190 25-550)
Sequence (P49190 25-550): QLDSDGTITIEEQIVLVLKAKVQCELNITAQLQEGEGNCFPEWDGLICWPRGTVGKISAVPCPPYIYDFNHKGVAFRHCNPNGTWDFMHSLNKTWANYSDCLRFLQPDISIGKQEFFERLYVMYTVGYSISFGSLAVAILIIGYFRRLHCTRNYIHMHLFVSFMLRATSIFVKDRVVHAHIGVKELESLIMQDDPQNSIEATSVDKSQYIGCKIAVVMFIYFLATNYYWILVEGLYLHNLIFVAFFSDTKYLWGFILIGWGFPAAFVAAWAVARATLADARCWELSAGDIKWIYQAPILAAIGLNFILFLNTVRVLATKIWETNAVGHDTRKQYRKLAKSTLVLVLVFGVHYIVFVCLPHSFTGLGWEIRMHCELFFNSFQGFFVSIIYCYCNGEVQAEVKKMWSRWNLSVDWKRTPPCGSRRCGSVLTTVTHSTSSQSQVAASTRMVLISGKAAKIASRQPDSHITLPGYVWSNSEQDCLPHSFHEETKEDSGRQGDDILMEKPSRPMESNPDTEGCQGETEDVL
TEST_DETAILS: cell-based or functional assay
Where no end group is shown, it is not given here.
Give just the numeric value; pmoles/well need not be written.

Check out these entries, answers already filled in.
>>> df
                                     binder  measurement_unit  observed
0  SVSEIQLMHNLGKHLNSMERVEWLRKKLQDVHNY-NH2 [[Tyr^34]hPTH-(1-34)NH2]       pmoles/well        81
1  AVSEHQLLHDKGKSIQDLRRREWLRKKLQDVHNY-NH2 [Hybrid-4 hPTHrP-(1-21)/[Y34]hPTH-(22-34)NH2]       pmoles/well       6.7

Fill in the blank: the reported cAMP accumulation Maximum of AVSEHQLLHDKGKSLNSMERVEWLRKKLQDVHNY-NH2 [Hybrid-1 hPTHrP-(1-14)/[Y34]hPTH-(15-34)NH2] is ____.
5.3
